FYI, the data here is from patent US20260062422A1.

- System: T-Rex 293 cell line SC3 cells lacking increased expression of androgen receptor protein
- measurement_notes: Cellular growth inhibition, T-Rex 293 SC3 cells without doxycycline, CellTiter-Glo
- Assay type: cell-based
- particulars: 72 h, T-Rex 293 SC3 cells not exposed to doxycycline, CellTiter-Glo 2.0
measurement_kind: GI50

# count of solved cases: 8
[[record]]
molecule = "Cc1sc2c(c1C)C(c1ccc(C3CC(N4CCN(c5ccc(C(=O)N[C@H]6C(C)(C)[C@H](Oc7ccc(C#N)c(Cl)c7)C6(C)C)nc5)CC4)C3)cc1)=N[C@@H](C)c1nnc(C)n1-2 (stereo partly drawn)"
measurement_kind = "GI50"
test_value = "500 to 1500 nM"

[[record]]
molecule = "Cc1sc2c(c1C)C(c1ccc(CC(=O)N3CCN(c4ncc(C(=O)N[C@H]5C(C)(C)[C@H](Oc6ccc(C#N)c(Cl)c6)C5(C)C)cn4)CC3)cc1)=N[C@@H](Cc1ncco1)c1nnc(C)n1-2"
measurement_kind = "GI50"
test_value = "500 to 1500 nM"

[[record]]
molecule = "Cc1sc2c(c1C)C(c1ccc(CCO[C@@H]3CCCN(c4ncc(C(=O)N[C@H]5C(C)(C)[C@H](Oc6ccc(C#N)c(Cl)c6)C5(C)C)cn4)C3)cc1)=N[C@@H](C)c1nnc(C)n1-2"
measurement_kind = "GI50"
test_value = "> 3000 nM"

[[record]]
molecule = "Cc1noc2c1-c1ccccc1C(c1ccc(O[C@H]3C[C@]4(CN(c5ncc(C(=O)N[C@H]6C(C)(C)[C@H](Oc7ccc(C#N)c(Cl)c7)C6(C)C)cn5)CCO4)C3)cc1)=N[C@H]2Cc1ncco1"
measurement_kind = "GI50"
test_value = "> 3000 nM"

[[record]]
molecule = "Cc1sc2c(c1C)C(c1ccc(-n3nccc3C3CCN(c4ncc(C(=O)N[C@H]5C(C)(C)[C@H](Oc6ccc(C#N)c(Cl)c6)C5(C)C)cn4)CC3)cc1)=N[C@@H](Cc1ncco1)c1nnc(C)n1-2"
measurement_kind = "GI50"
test_value = "> 3000 nM"

[[record]]
molecule = "Cc1sc2c(c1C)C(c1ccc(CCCOC3CCN(c4ncc(C(=O)N[C@H]5C(C)(C)[C@H](Oc6ccc(C#N)c(Cl)c6)C5(C)C)cn4)CC3)cc1)=N[C@@H](Cc1ccccn1)c1nnc(C)n1-2"
measurement_kind = "GI50"
test_value = "> 3000 nM"

[[record]]
molecule = "CCNC(=O)C[C@@H]1N=C(c2cccc(OCCOC3CCN(c4ncc(C(=O)N[C@H]5C(C)(C)[C@H](Oc6ccc(C#N)c(Cl)c6)C5(C)C)cn4)CC3)c2)c2c(sc(C)c2C)-n2c(C)nnc21"
measurement_kind = "GI50"
test_value = "500 to 1500 nM"

[[record]]
molecule = "Cc1sc2c(c1C)C(c1ccc(Cl)cc1)=N[C@@H](CC(=O)NCCOCCOCCOCCOC1CCN(c3ncc(C(=O)N[C@H]4C(C)(C)[C@H](Oc5ccc(C#N)c(Cl)c5)C4(C)C)cn3)CC1)c1nnc(C)n1-2"
measurement_kind = "GI50"
test_value = "1500 to 3000 nM"


Measured on T-Rex 293 cell line SC3 cells lacking increased expression of androgen receptor protein, Cc1sc2c(c1C)C(c1ccc(-c3cc(C4CCN(c5ncc(C(=O)N[C@H]6C(C)(C)[C@H](Oc7ccc(C#N)c(Cl)c7)C6(C)C)cn5)CC4)no3)cc1)=NC(Cc1ncco1)c1nnc(C)n1-2 (stereo partly drawn) has a documented GI50 of < 500 nM

###

Each item that follows carries a reported GI50.
- Test system: T-Rex 293 cell line SC cells lacking increased expression of progesterone receptor isoform B protein
- measurement_notes: Cellular growth inhibition, T-Rex 293 SC cells without doxycycline, Example 45
- Type: cell-based
- particulars: T-Rex 293 SC cells not exposed to doxycycline, 72 hours treatment, CellTiter-Glo 2.0

[[record]]
compound = "Cc1sc2c(c1C)C(c1ccc(CCCOC3CCN(c4ncc(C(=O)N[C@H]5C(C)(C)[C@H](Oc6ccc(C#N)c(Cl)c6)C5(C)C)cn4)CC3)cc1)=N[C@@H](Cc1ncco1)c1nnc(C)n1-2 [Compound I-131]"
test_value = "< 500 nM"

[[record]]
compound = "CCNC(=O)C[C@@H]1N=C(c2ccc(OCCOC3CCN(c4ncc(C(=O)N[C@H]5C(C)(C)[C@H](Oc6ccc(C#N)c(Cl)c6)C5(C)C)cn4)CC3)cc2)c2c(sc(C)c2C)-n2c(C)nnc21 [Compound I-60]"
test_value = "< 500 nM"

[[record]]
compound = "CCNC(=O)C[C@@H]1N=C(c2ccc(C#CCN3CCN(c4ncc(C(=O)N[C@H]5C(C)(C)[C@H](Oc6ccc(C#N)c(Cl)c6)C5(C)C)cn4)CC3)cc2)c2c(sc(C)c2C)-n2c(C)nnc21 [Compound I-54]"
test_value = "< 500 nM"

[[record]]
compound = "Cc1sc2c(c1C)C(c1ccc(CC3CC(C4CCN(c5ncc(C(=O)N[C@H]6C(C)(C)[C@H](Oc7ccc(C#N)c(Cl)c7)C6(C)C)cn5)CC4)C3)cc1)=NC(Cc1ncco1)c1nnc(C)n1-2 (stereo partly shown) [Compound I-136]"
test_value = "> 3000 nM"

[[record]]
compound = "Cc1sc2c(c1C)C(c1ccc(C#CCN3CCN(c4ncc(C(=O)N[C@H]5C(C)(C)[C@H](Oc6ccc(C#N)c(Cl)c6)C5(C)C)cn4)CC3)cc1)=N[C@@H](CC(=O)OC(C)(C)C)c1nnc(C)n1-2 [Compound I-55]"
test_value = "500 to 1500 nM"


Entry CCNC(=O)C[C@@H]1N=C(c2ccc(Oc3ncc(C(=O)N[C@H]4C(C)(C)[C@H](Oc5ccc(C#N)c(Cl)c5)C4(C)C)cn3)cc2)c2c(sc(C)c2C)-n2c(C)nnc21 [Compound I-84] — recorded GI50 = 500 to 1500 nM

Briefly, GI50 measured for Cc1sc2c(c1C)C(c1ccc(Cl)cc1)=N[C@@H](CC(=O)NCCOC1CCN(c3ncc(C(=O)N[C@H]4C(C)(C)[C@H](Oc5ccc(C#N)c(Cl)c5)C4(C)C)cn3)CC1)c1nnc(C)n1-2 [Compound I-6] : < 500 nM

The measured GI50 associated with CCNC(=O)C[C@@H]1N=C(c2ccc(OCCCC#Cc3ncc(C(=O)N[C@H]4C(C)(C)[C@H](Oc5ccc(C#N)c(Cl)c5)C4(C)C)cn3)cc2)c2c(sc(C)c2C)-n2c(C)nnc21 [Compound I-83] reads 500 to 1500 nM

###

Items are presented alongside their recorded GI50.
- Test system: T-Rex 293 cell line SC cells lacking increased expression of progesterone receptor isoform B protein
- measurement_notes: Cellular growth inhibition, T-Rex 293 SC cells without doxycycline, Example 45
- Assay type: cell-based
- particulars: T-Rex 293 SC cells not exposed to doxycycline, 72 hours treatment, CellTiter-Glo 2.0

Briefly, GI50 measured for "Cc1sc2c(c1C)C(c1ccc(O[C@H]3CC[C@@]4(CCCN(c5ncc(C(=O)N[C@H]6C(C)(C)[C@H](Oc7ccc(C#N)c(Cl)c7)C6(C)C)cn5)C4)CC3)cc1)=N[C@@H](Cc1ncco1)c1nnc(C)n1-2" : 500 to 1500 nM

compound "Cc1sc2c(c1C)C(c1ccc(N3CC(CC4CCN(c5ncc(C(=O)N[C@H]6C(C)(C)[C@H](Oc7ccc(C#N)c(Cl)c7)C6(C)C)cn5)CC4)C3)cc1)=N[C@@H](C)c1nnc(C)n1-2" , GI50 observed: 500 to 1500 nM

# GI50 (compound: "Cc1sc2c(c1C)C(c1ccc(Cl)cc1)=N[C@@H](CC(=O)NCCOCCOCCOC1CCN(c3ncc(C(=O)N[C@H]4C(C)(C)[C@H](Oc5ccc(C#N)c(Cl)c5)C4(C)C)cn3)CC1)c1nnc(C)n1-2" ) is < 500 nM

Please fill in: GI50 reported for "Cc1sc2c(c1C)C(c1ccc(CCC3CC4(CCCN(c5ncc(C(=O)N[C@H]6C(C)(C)[C@H](Oc7ccc(C#N)c(Cl)c7)C6(C)C)cn5)C4)C3)cc1)=N[C@@H](Cc1ncco1)c1nnc(C)n1-2" = 500 to 1500 nM

###

- Tested on: T-Rex 293 cell line SC3 cells lacking increased expression of androgen receptor protein
- measurement_notes: Cellular growth inhibition, T-Rex 293 SC3 cells without doxycycline, CellTiter-Glo
- Format: cell-based
- particulars: 72 h, T-Rex 293 SC3 cells not exposed to doxycycline, CellTiter-Glo 2.0
measurement_kind: GI50

[[record]]
compound = "CCNC(=O)C[C@@H]1N=C(c2ccc(OCCN3CCN(c4ncc(C(=O)N[C@H]5C(C)(C)[C@H](Oc6ccc(C#N)c(Cl)c6)C5(C)C)cn4)CC3)cc2)c2c(sc(C)c2C)-n2c(C)nnc21"
measurement_kind = "GI50"
test_value = "500 to 1500 nM"


// GI50 value for "Cc1sc2c(c1C)C(c1ccc(Cl)cc1)=N[C@@H](CC(=O)NCCCCOCCOC1CCN(c3ncc(C(=O)N[C@H]4C(C)(C)[C@H](Oc5ccc(C#N)c(Cl)c5)C4(C)C)cn3)CC1)c1nnc(C)n1-2" : 500 to 1500 nM

Quick note, GI50 for Cc1sc2c(c1C)C(c1ccc(N3CCOC4(CCN(c5ncc(C(=O)N[C@H]6C(C)(C)[C@H](Oc7ccc(C#N)c(Cl)c7)C6(C)C)cn5)CC4)C3)cc1)=NC(Cc1ncco1)c1nnc(C)n1-2 (stereo partly drawn) landed at > 3000 nM
